Test system: SN12C renal
TEST SUMMARY: NCI-60 one-dose screen, 48 h
CONDITION INFO: 10 µM unless noted
This is part of a sample that, as a whole, favours compounds with a hit. Of some 83,000 tested, about 20% had one in any assay. Active and inactive are the calls of the source. Rule for the calls: active = growth percent below 10; inactive = the rest.
Select the correct class. Options are 1.0 for active, 0.0 for inactive and nothing else.

Use these answered entries as a reference point.
INSERT INTO measurements (compound, category_label) VALUES
  ('CC1(C)CC[C@]2(C(=O)O)CC[C@]3(C)C(=CCC4[C@@]5(C)C[C@@H](O)[C@@H]6OC(c7cccc(Br)c7)OC[C@@]6(C)C5CC[C@]43C)C2C1 (some centres not stated)', 0.0),
  ('Cc1cc2nc3c([nH]c2cc1C)c1ccc(=O)cc1n3CCN(C)C', 0.0),
  ('COc1cc2c(c(OC)c1OC)C(=O)CC(c1cccc(NC(=O)c3cc(NC(=O)[C@H](C)N)ccc3Cl)c1)O2 (some centres not stated)', 0.0),
  ('O=C1Nc2ccc([N+](=O)[O-])cc2C1=Nc1ccccc1', 0.0);

Which outcome was entered for the compound C=C1CC[C@@H]2[C@]3(C)COC(c4cn[nH]c4-c4ccc(OC)cc4)O[C@@H]3CC[C@@]2(C)[C@@H]1C/C=C1/C(=O)OCC1O (some centres not stated) in this test?
1.0

Which outcome was entered for the compound N#Cc1c(-c2ccc(Br)cc2)nc2n[nH]c(-c3ccc(Br)cc3)c2c1-c1ccc(C(F)(F)F)cc1 in this test?
0.0

Which outcome was entered for the compound O=C(COc1ccc(NC(=O)Nc2ccc(Cl)c(Cl)c2)cc1)N=Nc1c(O)[nH]c2ccc(Br)cc12 in this test?
1.0

Which outcome was entered for the compound COc1ccc(/C=C/c2nc3ccccc3n3c(-c4ccc(Cl)cc4)nnc23)cc1 in this test?
0.0

Which outcome was entered for the compound C#C[C@]1(O)CC[C@H]2[C@@H]3CC=C4c5sc(-c6ccc(O)c(O)c6)nc5CC[C@]4(C)[C@H]3CC[C@@]21C in this test?
1.0

Which outcome was entered for the compound O=C(CN1C(=O)/C(=C/c2ccccc2F)SC1=S)N1CCOCC1 in this test?
0.0

Which outcome was entered for the compound COc1ccc(C2=NN(c3ccccc3)C(c3ccc(OC)c(OCc4ccccc4)c3)C2)cc1OC (configuration not stated) in this test?
0.0

Which outcome was entered for the compound O=C(N/N=C/c1ccc(-c2ccc(O)cc2)o1)c1[nH]c2ccc(Br)cc2c1-c1ccccc1 in this test?
1.0

Which outcome was entered for the compound O=C(c1ccc(OCCN2CCOCC2)cc1)C1[C@H](c2ccc(Cl)cc2)[C@@H](c2ccccc2)NC12C(=O)Nc1ccc(Cl)cc12 (some centres not stated) in this test?
0.0

Which outcome was entered for the compound CCOC(=O)C1=C(N)N(c2ccccc2)C2=C(C(=O)CC(C)(C)C2)C1c1ccc(Cl)cc1Cl (configuration not stated) in this test?
0.0

Which outcome was entered for the compound COc1ccc(C(=O)/C=C/c2cc3c(cc2Br)OCO3)cc1S(N)(=O)=O in this test?
1.0

Which outcome was entered for the compound Cc1ccc(S(=O)(=O)c2nc(S(=O)(=O)c3ccc(C)cc3)c(Cl)s2)cc1 in this test?
1.0

Which outcome was entered for the compound COc1ccc(NC(=O)Cn2c(O)c(N=Nc3ccc(S(N)(=O)=O)cc3)c3ccccc32)cc1 in this test?
0.0
